- System: HepG2
- METHOD DESCRIPTION: cytotoxicity call (relative viability < 0.9)
- CONDITION CONTEXT: 10 µM
The campaign covered roughly 39,000 compounds. About 3,300 (8.5%) were called active. What follows is part of a selection rich in actives, with near analogues and random picks from the rest.
EXPERIMENTAL ENDPOINT: cytotoxicity call

mol=C[C@@H]1CCCCO[C@H](CN(C)C(=O)c2ccncc2)[C@@H](C)CN([C@H](C)CO)C(=O)c2cc(NC(=O)C3CCCCC3)ccc2O1 experimental_endpoint="cytotoxicity call" val=inactive
mol=C[C@@H]1CCCCO[C@@H](CN(C)S(C)(=O)=O)[C@H](C)CN([C@@H](C)CO)C(=O)c2cc(NS(=O)(=O)c3cn(C)cn3)ccc2O1 experimental_endpoint="cytotoxicity call" val=inactive
mol=O=C(C[C@H]1CC[C@H]2[C@@H](COC[C@@H](O)CN2S(=O)(=O)c2cccc(Cl)c2)O1)NCc1ccc2c(c1)OCO2 experimental_endpoint="cytotoxicity call" val=inactive
mol=C[C@@H]1CCCCO[C@@H](CN(C)Cc2ccc(Cl)c(Cl)c2)[C@@H](C)CN([C@@H](C)CO)C(=O)c2cc(NS(=O)(=O)c3cccs3)ccc2O1 experimental_endpoint="cytotoxicity call" val=active
mol=C[C@@H]1CN([C@@H](C)CO)C(=O)c2cc(NC(=O)Nc3ccc(C(F)(F)F)cc3)ccc2O[C@@H](C)CCCCO[C@@H]1CN(C)S(=O)(=O)c1cccs1 experimental_endpoint="cytotoxicity call" val=inactive
mol=C[C@H](CO)N1C[C@H](C)[C@@H](CN(C)C(=O)Nc2cccc3ccccc23)Oc2c(NS(=O)(=O)c3ccc(F)cc3)cccc2C1=O experimental_endpoint="cytotoxicity call" val=inactive
mol=C[C@@H]1CN([C@H](C)CO)C(=O)c2cc(NC(=O)Nc3cccc4ccccc34)ccc2O[C@H]1CN(C)Cc1ccc(C(F)(F)F)cc1 experimental_endpoint="cytotoxicity call" val=inactive
mol=C[C@@H]1CCCCO[C@H](CN(C)S(=O)(=O)c2cccs2)[C@@H](C)CN([C@@H](C)CO)C(=O)c2cc(NC(=O)Nc3ccc(C(F)(F)F)cc3)ccc2O1 experimental_endpoint="cytotoxicity call" val=active
mol=C[C@@H]1CN([C@@H](C)CO)C(=O)c2cc(NC(=O)Nc3cccc4ccccc34)ccc2O[C@H]1CN(C)Cc1ccc(C(F)(F)F)cc1 experimental_endpoint="cytotoxicity call" val=active
mol=C[C@H](CO)N1C[C@H](C)[C@@H](CN(C)S(=O)(=O)c2cccs2)OCCCC[C@H](C)Oc2ccc(NC(=O)Nc3ccc(C(F)(F)F)cc3)cc2C1=O experimental_endpoint="cytotoxicity call" val=inactive
mol=C[C@H](CO)N1C[C@H](C)[C@@H](CN(C)Cc2ccc(C(F)(F)F)cc2)Oc2ccc(NC(=O)Nc3cccc4ccccc34)cc2C1=O experimental_endpoint="cytotoxicity call" val=inactive
mol=Cn1c([N+](=O)[O-])cnc1COC(N)=O experimental_endpoint="cytotoxicity call" val=inactive
